Provenance of the data: the OligoGym collection

TARGET_DESC: TMEM63B
PROCEDURE_TEXT: reporter assay of Huesken 2005; note: test concentration or dose not given here
SETTINGS: siRNA
Oligonucleotides are given in HELM: sugar(base)linkage, 5' to 3'; d 2'-deoxyribose, r ribose, m 2'-O-methylribose, p phosphate. ss, as = sense and antisense strand
MEASURED_METRIC: normalised inhibition (eCFP-eYFP dual reporter) (%)
One number for each entry, in %.

Observe how each entry below is paired with its result.
SUBSTANCE	VALUE_REPORTED
RNA1{r(G)p.r(U)p.r(A)p.r(C)p.r(U)p.r(A)p.r(C)p.r(A)p.r(C)p.r(A)p.r(A)p.r(A)p.r(G)p.r(C)p.r(U)p.r(G)p.r(G)p.r(A)p.r(G)p.d(T)p.d(T)}|RNA2{r(C)p.r(U)p.r(C)p.r(C)p.r(A)p.r(G)p.r(C)p.r(U)p.r(U)p.r(U)p.r(G)p.r(U)p.r(G)p.r(U)p.r(A)p.r(G)p.r(U)p.r(A)p.r(C)p.d(T)p.d(C)}$$$RNA1{StrandType:ss}|RNA2{StrandType:as}$	58.4
RNA1{r(U)p.r(G)p.r(C)p.r(U)p.r(G)p.r(C)p.r(C)p.r(U)p.r(G)p.r(U)p.r(C)p.r(A)p.r(A)p.r(C)p.r(U)p.r(U)p.r(C)p.r(U)p.r(C)p.d(T)p.d(T)}|RNA2{r(G)p.r(A)p.r(G)p.r(A)p.r(A)p.r(G)p.r(U)p.r(U)p.r(G)p.r(A)p.r(C)p.r(A)p.r(G)p.r(G)p.r(C)p.r(A)p.r(G)p.r(C)p.r(A)p.d(C)p.d(G)}$$$RNA1{StrandType:ss}|RNA2{StrandType:as}$	60.5

// returns reported normalised inhibition (eCFP-eYFP dual reporter) for input RNA1{r(C)p.r(C)p.r(U)p.r(U)p.r(U)p.r(G)p.r(U)p.r(C)p.r(A)p.r(C)p.r(C)p.r(U)p.r(U)p.r(C)p.r(C)p.r(A)p.r(C)p.r(A)p.r(A)p.d(T)p.d(T)}|RNA2{r(U)p.r(U)p.r(G)p.r(U)p.r(G)p.r(G)p.r(A)p.r(A)p.r(G)p.r(G)p.r(U)p.r(G)p.r(A)p.r(C)p.r(A)p.r(A)p.r(A)p.r(G)p.r(G)p.d(C)p.d(C)}$$$RNA1{StrandType:ss}|RNA2{StrandType:as}$ 74.2

* * *

TARGET_DESC: UBE2K
PROCEDURE_TEXT: reporter assay of Huesken 2005
SETTINGS: siRNA
Oligonucleotides are given in HELM: sugar(base)linkage, 5' to 3'; d 2'-deoxyribose, r ribose, m 2'-O-methylribose, p phosphate. ss, as = sense and antisense strand
MEASURED_METRIC: normalised inhibition (eCFP-eYFP dual reporter) (%)
One number for each entry, in %.

Observe how each entry below is paired with its result.
SUBSTANCE	TARGET_DESC	VALUE_REPORTED
RNA1{r(A)p.r(G)p.r(G)p.r(A)p.r(G)p.r(G)p.r(A)p.r(A)p.r(G)p.r(A)p.r(U)p.r(A)p.r(C)p.r(C)p.r(A)p.r(A)p.r(C)p.r(U)p.r(A)p.d(T)p.d(T)}|RNA2{r(U)p.r(A)p.r(G)p.r(U)p.r(U)p.r(G)p.r(G)p.r(U)p.r(A)p.r(U)p.r(C)p.r(U)p.r(U)p.r(C)p.r(C)p.r(U)p.r(C)p.r(C)p.r(U)p.d(T)p.d(C)}$$$RNA1{StrandType:ss}|RNA2{StrandType:as}$	UBE2K	75.4
RNA1{r(G)p.r(A)p.r(G)p.r(G)p.r(A)p.r(G)p.r(A)p.r(A)p.r(A)p.r(U)p.r(A)p.r(G)p.r(C)p.r(A)p.r(G)p.r(G)p.r(A)p.r(C)p.r(C)p.d(T)p.d(T)}|RNA2{r(G)p.r(G)p.r(U)p.r(C)p.r(C)p.r(U)p.r(G)p.r(C)p.r(U)p.r(A)p.r(U)p.r(U)p.r(U)p.r(C)p.r(U)p.r(C)p.r(C)p.r(U)p.r(C)p.d(T)p.d(T)}$$$RNA1{StrandType:ss}|RNA2{StrandType:as}$	UBE2K	54.8

Switching to the query record.
// returns reported normalised inhibition (eCFP-eYFP dual reporter) for input RNA1{r(G)p.r(G)p.r(U)p.r(U)p.r(U)p.r(A)p.r(U)p.r(C)p.r(A)p.r(C)p.r(U)p.r(A)p.r(A)p.r(A)p.r(A)p.r(U)p.r(A)p.r(U)p.r(G)p.d(T)p.d(T)}|RNA2{r(C)p.r(A)p.r(U)p.r(A)p.r(U)p.r(U)p.r(U)p.r(U)p.r(A)p.r(G)p.r(U)p.r(G)p.r(A)p.r(U)p.r(A)p.r(A)p.r(A)p.r(C)p.r(C)p.d(G)p.d(G)}$$$RNA1{StrandType:ss}|RNA2{StrandType:as}$ 81.2

* * *

What normalised inhibition (eCFP-eYFP dual reporter) was measured for each of the following?
TARGET_DESC: DENND5A
PROCEDURE_TEXT: reporter assay of Huesken 2005
SETTINGS: siRNA
Oligonucleotides are written 5' to 3', each unit as a sugar letter and its base; * is a phosphorothioate linkage, no mark a phosphodiester; rarer units and linkages stand in square brackets, end groups in braces. Plain capitals give the bases only. d = 2'-deoxy (DNA); r = 2'-OH (RNA)
Answer as a quantity: numeral, then unit.

> print(dat)
                                  substance  value.reported
1  sense rUrGrGrGrGrUrCrUrArUrGrGrGrCrCrArArUrAdTdT / antisense rUrArUrUrGrGrCrCrCrArUrArGrArCrCrCrCrAdGdA           66.7%
2  sense rGrGrGrCrArUrGrGrArUrGrArUrGrGrArArGrCdTdT / antisense rGrCrUrUrCrCrArUrCrArUrCrCrArUrGrCrCrCdTdT           54.4%

Switching to the query record.
// returns reported normalised inhibition (eCFP-eYFP dual reporter) for input sense rArArUrGrGrGrArArCrArUrUrGrCrUrGrGrCrUdTdT / antisense rArGrCrCrArGrCrArArUrGrUrUrCrCrCrArUrUdCdC 43.6%

* * *

What normalised inhibition (eCFP-eYFP dual reporter) was measured for each of the following?
TARGET_DESC: P2RX3
PROCEDURE_TEXT: reporter assay of Huesken 2005
SETTINGS: siRNA
Oligonucleotides are written 5' to 3', each unit as a sugar letter and its base; * is a phosphorothioate linkage, no mark a phosphodiester; rarer units and linkages stand in square brackets, end groups in braces. Plain capitals give the bases only. d = 2'-deoxy (DNA); r = 2'-OH (RNA)
Answer as a quantity: numeral, then unit.

Observe how each entry below is paired with its result.
> print(dat)
                                  substance  target.desc  value.reported
1  sense rArGrArCrUrArCrGrCrUrGrArArArArUrCrGrCdTdT / antisense rGrCrGrArUrUrUrUrCrArGrCrGrUrArGrUrCrUdCdA        P2RX3           77.1%
2  sense rCrCrArCrCrUrCrArGrGrGrCrArCrCrUrCrGrGdTdT / antisense rCrCrGrArGrGrUrGrCrCrCrUrGrArGrGrUrGrGdCdG        P2RX3           70.2%

// returns reported normalised inhibition (eCFP-eYFP dual reporter) for input sense rUrCrArCrUrArUrUrUrUrCrArUrCrArArGrArAdTdT / antisense rUrUrCrUrUrGrArUrGrArArArArUrArGrUrGrAdAdG 79.6%

* * *

What normalised inhibition (eCFP-eYFP dual reporter) was measured for each of the following?
TARGET_DESC: UBE2S
PROCEDURE_TEXT: reporter assay of Huesken 2005
SETTINGS: siRNA
Oligonucleotides are written 5' to 3', each unit as a sugar letter and its base; * is a phosphorothioate linkage, no mark a phosphodiester; rarer units and linkages stand in square brackets, end groups in braces. Plain capitals give the bases only. d = 2'-deoxy (DNA); r = 2'-OH (RNA)
Answers are plain numbers, in %.

Observe how each entry below is paired with its result.
> print(dat)
                                  substance  unit.name  value.reported
1  sense rGrArGrGrGrGrCrUrGrArGrGrGrUrCrCrCrArUdTdT / antisense rArUrGrGrGrArCrCrCrUrCrArGrCrCrCrCrUrCdCdC          %              45
2  sense rGrArGrGrArGrUrArUrGrCrArGrCrUrCrGrGrGdTdT / antisense rCrCrCrGrArGrCrUrGrCrArUrArCrUrCrCrUrCdGdT          %            56.7
3  sense rCrCrGrArArCrGrUrGrGrGrCrGrCrCrArArUrGdTdT / antisense rCrArUrUrGrGrCrGrCrCrCrArCrGrUrUrCrGrGdGdT          %            44.9
4  sense rGrCrArCrUrCrArArCrGrArGrGrArGrGrCrGrGdTdT / antisense rCrCrGrCrCrUrCrCrUrCrGrUrUrGrArGrUrGrCdAdG          %            48.5
5  sense rArArCrUrArCrGrArGrGrArGrUrArUrGrCrArGdTdT / antisense rCrUrGrCrArUrArCrUrCrCrUrCrGrUrArGrUrUdCdT          %              40

Go through the list and state normalised inhibition (eCFP-eYFP dual reporter) for each entry.
1. sense rArArGrGrUrCrUrUrUrCrCrCrArArCrGrArGrGdTdT / antisense rCrCrUrCrGrUrUrGrGrGrArArArGrArCrCrUrUdGdA
2. sense rArGrUrGrCrCrUrGrCrUrGrArUrCrCrArCrCrCdTdT / antisense rGrGrGrUrGrGrArUrCrArGrCrArGrGrCrArCrUdTdG
3. sense rCrUrUrUrCrCrCrArArCrGrArGrGrArGrGrArCdTdT / antisense rGrUrCrCrUrCrCrUrCrGrUrUrGrGrGrArArArGdAdC

1. 53
2. 55.7
3. 33.9

Go through the list and state normalised inhibition (eCFP-eYFP dual reporter) for each entry.
1. sense rCrGrArGrUrCrUrGrCrArCrUrCrArArCrGrArGdTdT / antisense rCrUrCrGrUrUrGrArGrUrGrCrArGrArCrUrCrGdGdG
2. sense rGrGrCrCrArArGrArArGrCrArUrGrCrUrGrGrCdTdT / antisense rGrCrCrArGrCrArUrGrCrUrUrCrUrUrGrGrCrCdAdT

1: 70.6; 2: 57.2
